test system: c-Abl (mouse); assay: phosphorylation enrichment, bacterial display (enrichment ratio); higher = better substrate or ligand; peptides without Tyr show the background;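 further: 11-residue human phosphosite peptides and single-mutation variants displayed on the E. coli surface, counted by deep sequencing, each peptide's frequency after selection divided by its frequency in the unselected input library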;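 further: frequency after pTyr selection over input frequency; kinase dosed for 20-30% of maximal phosphorylation in three min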
The sequences listed here are annotated with their phosphorylation enrichment.
Lab note: jot the number down without any unit.

Consider the following illustrative entries.
1) YTTIHYNYMCN [TP53_Y234_C229Y]
0.92
2) ETRWNYHFEVV [GCNT3_Y267_K266N]
0.904

Kindly note the recorded phosphorylation enrichment for RPYRPYIIRGM [LRP5_Y1531] , which is 0.587

====

tested on: AncSZ; test: phosphorylation enrichment, bacterial display (enrichment ratio); higher = better substrate or ligand; peptides without Tyr show the background
READOUT LABEL: phosphorylation enrichment
API doc: respond with a numeric literal and nothing else, no unit.

Examples from the recorded data:
1) GIVEDYRPPVY [ACVRL1_Y421_F425V]
0.817
2) NFADPYRQLQF [CTNND2_Y503_YF]
0.765
3) PESCLYKESWI [IQGAP2_Y630_L635I]
1.18
4) PVQAASQKVVA [HBB_Y131_Y131S]
0.482
5) KFVVVYFRETD [IL17RB_Y447_I451T_YF]
1.36
6) AGITAYQSCLQ [ADGRA2_Y377]
1.12
7) HEKKAYAFCGT [RPS6KA3_Y226_S227A]
0.654
8) STAPSYGNPSS [CD19_Y378_G373S]
0.545
9) FADTAYNYRHG [PAH_Y166_I164T]
0.672
10) VHNLDYFKQTT [FGFR3_Y647_K650Q_YF]
0.767

The sequence listed as AVRYIYTIDGS [DCX_Y105_G100A] has a reported phosphorylation enrichment of 0.948

The reported phosphorylation enrichment of the sequence IGEGTYGVLYK [CDK2_Y15_V18L] was 0.817

Per the records, this sequence ( KPPFSYNALIM [FOXG1_Y186] ) has phosphorylation enrichment equal to 0.641

In plain terms, LNEQHYGGLTG [PGAM4_Y92_R90Q] has a documented phosphorylation enrichment of 0.752

Field phosphorylation enrichment (entry SSNTEYLSASD [INSR_Y999_P997T] ) reads 0.884

phosphorylation enrichment for FSNVLYRPRGA [TMIGD2_Y197_YF] is 0.695
